system: HEK293; assay: Cytotoxic Profiling of Annotated Libraries Using Quantitative High-Throughput Screening (AID 1296008); settings: Five cell lines viability, CellTiter-Glo ATP luminescence, 48-72 h; note: nearly all actives have a fitted effect of over 60% in size
Results filed as inconclusive are left out. Calls of active or inactive are those of the source. Calls come from the whole dose curve; as a rule, active = well fitted inhibition curve with a large enough effect; inconclusive = small, poorly fitted or top-dose-only effect; inactive = flat fitted curve, though single readings scatter. Where a SMILES comes first, the peptide text is derived from it.

{"columns": ["molecule", "outcome"],
 "data": [
  ["C=C1CC2(C(=O)O)CC1CCC2C1(C)CCCC2(C)C(=O)OC(O)C21 (centres undefined)", "inactive"],
  ["CC1OC(OC2C(O)C(C(=O)O)OC(OC3CCC4(C)C(CCC5(C)C4C=CC4=C6CC(C)(C)CC(O)C6(C)CCC45C)C3(C)C)C2OC2OCC(O)C(O)C2O)C(O)C(O)C1O (centres undefined)", "inactive"],
  ["CC1CCC2(O1)C(C)(C)CC(O[C@@H]1O[C@H](CO[C@@H]3OC[C@](O)(CO)[C@H]3O)[C@@H](O)[C@H](O)[C@H]1O)CC2(C)O (some centres undefined)", "inactive"],
  ["C(#Cc1cccc(CN2CCOCC2)c1)CCN1CCCCC1", "inactive"],
  ["O=C(/C=C/c1ccc(O)cc1)OC[C@H]1O[C@@H](OC(=O)/C=C/c2ccccc2)[C@H](O)[C@@H](O)[C@@H]1O", "inactive"],
  ["C=C1C(=O)OC2/C=C(\\C)CC/C=C(\\C(=O)O)CC/C=C(\\C)CCC12 (centres undefined)", "inactive"],
  ["CC1=C(CC(=O)O)c2cc(F)ccc2C1=Cc1ccc(S(C)(=O)=O)cc1", "inactive"],
  ["CC(=O)OC[C@@]12[C@H](O)C[C@]3(C)C(=CCC4[C@@]5(C)CC[C@H](O[C@@H]6O[C@H](C(=O)O)[C@@H](O[C@@H]7O[C@H](CO)[C@@H](O)[C@H](O)[C@H]7O)[C@H](O)[C@H]6O[C@@H]6O[C@H](CO)[C@@H](O)[C@H](O)[C@H]6O)[C@](C)(CO)C5CC[C@]43C)[C@@H]1CC(C)(C)[C@@H](OC(C)=O)[C@@H]2O (some centres undefined)", "inactive"],
  ["CC1(C)CC[C@]2(C(=O)O[C@@H]3O[C@H](CO)[C@@H](O)[C@H](O)[C@H]3O)CC[C@]3(C)C(=CCC4[C@@]5(C)C[C@@H](O)[C@H](O)C(CO)(CO)C5CC[C@]43C)C2[C@@H]1O (some centres undefined)", "inactive"],
  ["CC1[C@@H](O)[C@@H](O)C2[C@]3(C)C(C[C@H]4OC(=O)[C@H](O)[C@]1(O)[C@@]24C)C(C)(O)C[C@H](O)[C@H]3O (some centres undefined)", "inactive"],
  ["C=C1C[C@]23C[C@H]1CC[C@H]2[C@@]12C=C[C@H](O)[C@@](C)(C(=O)O1)[C@H]2[C@@H]3C(=O)O", "inactive"],
  ["CN1CCC(c2c[nH]c3ccc(NC(=O)c4ccc(F)cc4)cc23)CC1", "inactive"],
  ["COc1cccc2c1CCC[C@H]2CN(C)CCc1ccc2ccoc2c1", "inactive"],
  ["CC1NC(=O)CNC(=O)C(C(C)C)NC(=O)C2CCCN2C(=O)C(C(C)C)NC(=O)C(Cc2c[nH]c3ccccc23)NC1=O (centres undefined) (cyclo(GAWVPV); configuration not given here)", "inactive"]
]}

The reported measurements were obtained from PubChem BioAssay (NCATS).
